Recorded viability at 48 h, 50 µM values for a group of molecules are listed next.
ASSAY SUMMARY: Cytotoxicity against human SH-SY5Y cells assessed as cell viability at 50 uM incubated for 48 hrs by CCK-8 method
Type: cell-based
CONDITION SUMMARY: read-out: Activity
PARAMETER: viability at 48 h, 50 µM (%)

MOLECULE	RECORDED VALUE
Cc1nc2ccc(NCc3c(O)cccc3F)cc2n2c(-c3ccccc3Cl)nnc12	23
Cc1nc2ccc(NCc3ccc(F)cc3O)cc2n2c(-c3ccccc3Cl)nnc12	53
